Listing: residual activity of selected compounds
# Experimental System: Tyrosine-protein kinase ABL2 (Homo sapiens) (UniProt P42684)
# Sequence (P42684 whole entry): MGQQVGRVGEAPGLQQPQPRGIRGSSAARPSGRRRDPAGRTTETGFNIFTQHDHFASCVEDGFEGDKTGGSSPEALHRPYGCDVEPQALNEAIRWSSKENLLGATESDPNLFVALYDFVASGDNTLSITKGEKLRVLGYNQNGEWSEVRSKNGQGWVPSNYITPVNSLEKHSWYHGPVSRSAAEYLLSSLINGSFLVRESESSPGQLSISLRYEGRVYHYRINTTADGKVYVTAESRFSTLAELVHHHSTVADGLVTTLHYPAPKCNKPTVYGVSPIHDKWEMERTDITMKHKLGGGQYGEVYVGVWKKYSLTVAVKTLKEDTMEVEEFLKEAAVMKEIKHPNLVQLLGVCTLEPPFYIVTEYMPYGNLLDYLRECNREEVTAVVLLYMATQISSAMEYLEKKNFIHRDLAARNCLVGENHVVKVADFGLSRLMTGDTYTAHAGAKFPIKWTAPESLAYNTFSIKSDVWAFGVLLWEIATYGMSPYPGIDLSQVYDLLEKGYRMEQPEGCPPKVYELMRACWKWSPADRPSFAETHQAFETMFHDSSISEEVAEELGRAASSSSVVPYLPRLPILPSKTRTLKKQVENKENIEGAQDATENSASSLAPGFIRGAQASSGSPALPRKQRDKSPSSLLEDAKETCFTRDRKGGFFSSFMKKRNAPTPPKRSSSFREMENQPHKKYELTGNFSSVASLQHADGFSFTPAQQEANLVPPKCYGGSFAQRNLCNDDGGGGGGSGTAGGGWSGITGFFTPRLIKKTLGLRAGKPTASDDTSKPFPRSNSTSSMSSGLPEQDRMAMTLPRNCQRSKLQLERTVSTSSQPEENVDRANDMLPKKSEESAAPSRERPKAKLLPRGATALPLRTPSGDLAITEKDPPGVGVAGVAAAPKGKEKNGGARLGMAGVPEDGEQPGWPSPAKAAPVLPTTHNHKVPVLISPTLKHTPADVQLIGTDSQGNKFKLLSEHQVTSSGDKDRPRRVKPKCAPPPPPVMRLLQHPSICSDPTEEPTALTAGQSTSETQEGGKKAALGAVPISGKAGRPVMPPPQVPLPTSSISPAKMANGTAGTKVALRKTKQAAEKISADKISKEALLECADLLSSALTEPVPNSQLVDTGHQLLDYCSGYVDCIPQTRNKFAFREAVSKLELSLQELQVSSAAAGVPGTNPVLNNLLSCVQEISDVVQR
# Setup Conditions: at 10 µM
# value in %; strip the unit string

Query: Entry under review: `CCN(CC)C(=O)c1ccc(Nc2nc(OCC3CCCCC3)c3nc[nH]c3n2)cc1` . Reported residual activity?
Reply: 9

Query: Recorded residual activity of `N#CCCc1ccc2c(c1)-c1[nH]c3ccc([N+](=O)[O-])cc3c1CC(=O)N2` , please.
Reply: 17

Query: Record request: residual activity value, item `O=c1c2ccccc2[nH]c(=S)n1CCN1CCC(=C(c2ccc(F)cc2)c2ccc(F)cc2)CC1`
Reply: 74

Query: # query: residual activity of entry `Cc1cc2ncc(-c3ccccc3)nc2cc1C`
Reply: 103

Query: residual activity lookup needed for `c1ccc(-c2n[nH]c3c2oc2ccccc23)cc1` , thanks.
Reply: 93

Query: Would you mind telling me what residual activity value was observed for `O=C1NC(=O)c2cc(Nc3ccc(F)cc3)c(Nc3ccc(F)cc3)cc21` ?
Reply: 58
